- System: HSV-1 K26-GFP infected primary human skin cells
- experiment notes: % change of HSV-1 GFP signal vs untreated infected cells; higher = less antiviral inhibition
- particulars: 2.2222 µM; cell type: primary keratinocytes; donor: 5; time (h post infection): 20
measured metric: % change of HSV-1 GFP signal (%)
Give bare numbers, in %.

Example compounds with recorded % change of HSV-1 GFP signal:
Prompt line: Give the measured % change of HSV-1 GFP signal of "Cc1nc(N(C)C(=O)Cc2ccc(-c3ccccn3)cc2)sc1S(N)(=O)=O" .
Response line: -99.5

Prompt line: Give the measured % change of HSV-1 GFP signal of CC(=O)O[C@H]1C[C@H](O[C@H]2[C@@H](O)C[C@H](O[C@H]3[C@@H](O)C[C@H](O[C@H]4CC[C@@]5(C)[C@H](CC[C@@H]6[C@@H]5C[C@@H](O)[C@]5(C)[C@@H](C7=CC(=O)OC7)CC[C@]65O)C4)O[C@@H]3C)O[C@@H]2C)O[C@H](C)[C@H]1O[C@@H]1O[C@H](CO)[C@@H](O)[C@H](O)[C@H]1O [Lanatoside C] .
Response line: -99.9

Prompt line: Give the measured % change of HSV-1 GFP signal of "C=CC(=O)N1CC/C(=C\c2ccc(F)c([N+](=O)[O-])c2)C(=O)/C(=C/c2ccc(F)c([N+](=O)[O-])c2)C1" .
Response line: -8.44

Provide % change of HSV-1 GFP signal values for the following items, in order.
1. O=C(Nc1ccc([N+](=O)[O-])cc1Cl)c1cc(Cl)ccc1O [Niclosamide]
2. CC1(C)CC(=O)c2c(C(F)(F)F)nn(-c3ccc(C(N)=O)c(N[C@H]4CC[C@H](O)CC4)c3)c2C1
3. Nc1ccn([C@@H]2O[C@H](CO)[C@@H](O)C2(F)F)c(=O)n1
4. O=C(/C=C\n1cnc(-c2cc(C(F)(F)F)cc(C(F)(F)F)c2)n1)NNc1ccccn1 [Verdinexor]
5. COc1ccc(-c2nc(N3CCOCC3)c3sc(CN(C)c4ncc(C(=O)NO)cn4)cc3n2)cn1 [Fimepinostat]
6. Cc1cccc(C)c1N(CC(=O)Nc1ccc(-c2ncon2)cc1)C(=O)C1CCS(=O)(=O)CC1

Response line:
[-35.9, -99.9, -99, -36.4, -58.2, -93.4]

Prompt line: Give the measured % change of HSV-1 GFP signal of CC(C)c1cnn2c(NCc3ccccc3-n3cccn3)nc(OC3CCCNC3)nc12 (stereo not given) .
Response line: -37.8

---

- Test system: primary keratinocytes
- experiment notes: % change in live cells vs DMSO control; higher = less cytotoxic
- particulars: 0.082305 µM; donor: 4; time (h post treatment): 20
Consider the following molecules; for each one, report its % change in live cells.
Numbers only, in %.

Example molecules with recorded % change in live cells:
Prompt line: Param readout= % change in live cells; system= primary keratinocytes; entry= "Cc1cccc(C)c1N(CC(=O)Nc1ccc(-c2ncon2)cc1)C(=O)C1CCS(=O)(=O)CC1" ; returns value.
Response line: 8.33

Prompt line: Param readout= % change in live cells; system= primary keratinocytes; entry= "C=CC(=O)N1CC/C(=C\c2ccc(F)c([N+](=O)[O-])c2)C(=O)/C(=C/c2ccc(F)c([N+](=O)[O-])c2)C1" ; returns value.
Response line: -13.3

Prompt line: Param readout= % change in live cells; system= primary keratinocytes; entry= "CC1(C)CC(=O)c2c(C(F)(F)F)nn(-c3ccc(C(N)=O)c(N[C@H]4CC[C@H](O)CC4)c3)c2C1" ; returns value.
Response line: 4.33

Prompt line: Param readout= % change in live cells; system= primary keratinocytes; entry= CC(=O)O[C@H]1C[C@H](O[C@H]2[C@@H](O)C[C@H](O[C@H]3[C@@H](O)C[C@H](O[C@H]4CC[C@@]5(C)[C@H](CC[C@@H]6[C@@H]5C[C@@H](O)[C@]5(C)[C@@H](C7=CC(=O)OC7)CC[C@]65O)C4)O[C@@H]3C)O[C@@H]2C)O[C@H](C)[C@H]1O[C@@H]1O[C@H](CO)[C@@H](O)[C@H](O)[C@H]1O [Lanatoside C] ; returns value.
Response line: -18

Prompt line: Param readout= % change in live cells; system= primary keratinocytes; entry= O=C(Nc1ccc([N+](=O)[O-])cc1Cl)c1cc(Cl)ccc1O [Niclosamide] ; returns value.
Response line: -13

Here's the next entry for you.
Prompt line: Param readout= % change in live cells; system= primary keratinocytes; entry= CC(C)c1cnn2c(NCc3ccccc3-n3cccn3)nc(OC3CCCNC3)nc12 (stereo unspecified) ; returns value.
Response line: 1

---

- Test system: primary keratinocytes
- experiment notes: % change in live cells vs DMSO control; higher = less cytotoxic
- particulars: 6.66667 µM; donor: 5; time (h post treatment): 20
Hi, to clarify the labels: class 1 covers % change in live cells from -40% upward, class 0 covers anything below -40%.

Examples with answers:
Prompt line: Could you tell me if the measured % change in live cells of "Nc1ccn([C@@H]2O[C@H](CO)[C@@H](O)C2(F)F)c(=O)n1" reaches -40% or more?
Response line: class 0

Prompt line: Could you tell me if the measured % change in live cells of O=C(/C=C\n1cnc(-c2cc(C(F)(F)F)cc(C(F)(F)F)c2)n1)NNc1ccccn1 [Verdinexor] reaches -40% or more?
Response line: class 1

---
Prompt line: Could you tell me if the measured % change in live cells of O=C(Nc1ccc([N+](=O)[O-])cc1Cl)c1cc(Cl)ccc1O [Niclosamide] reaches -40% or more?
Response line: class 1

Prompt line: Could you tell me if the measured % change in live cells of "Cc1nc(N(C)C(=O)Cc2ccc(-c3ccccn3)cc2)sc1S(N)(=O)=O" reaches -40% or more?
Response line: class 1

Prompt line: Could you tell me if the measured % change in live cells of CC(=O)O[C@H]1C[C@H](O[C@H]2[C@@H](O)C[C@H](O[C@H]3[C@@H](O)C[C@H](O[C@H]4CC[C@@]5(C)[C@H](CC[C@@H]6[C@@H]5C[C@@H](O)[C@]5(C)[C@@H](C7=CC(=O)OC7)CC[C@]65O)C4)O[C@@H]3C)O[C@@H]2C)O[C@H](C)[C@H]1O[C@@H]1O[C@H](CO)[C@@H](O)[C@H](O)[C@H]1O [Lanatoside C] reaches -40% or more?
Response line: class 0

Prompt line: Could you tell me if the measured % change in live cells of CC(C)c1cnn2c(NCc3ccccc3-n3cccn3)nc(OC3CCCNC3)nc12 (stereo not given) reaches -40% or more?
Response line: class 0

Prompt line: Could you tell me if the measured % change in live cells of COc1ccc(-c2nc(N3CCOCC3)c3sc(CN(C)c4ncc(C(=O)NO)cn4)cc3n2)cn1 [Fimepinostat] reaches -40% or more?
Response line: class 0

Prompt line: Could you tell me if the measured % change in live cells of "Cc1cccc(C)c1N(CC(=O)Nc1ccc(-c2ncon2)cc1)C(=O)C1CCS(=O)(=O)CC1" reaches -40% or more?
Response line: class 1

Prompt line: Could you tell me if the measured % change in live cells of "CC1(C)CC(=O)c2c(C(F)(F)F)nn(-c3ccc(C(N)=O)c(N[C@H]4CC[C@H](O)CC4)c3)c2C1" reaches -40% or more?
Response line: class 0

---

- System: primary keratinocytes
- experiment notes: % change in live cells vs DMSO control; higher = less cytotoxic
- particulars: 20 µM; donor: 3; time (h post treatment): 20
Consider the following molecules; for each one, report its % change in live cells.
Give bare numbers, in %.

Prompt line: Give the measured % change in live cells of O=C(/C=C\n1cnc(-c2cc(C(F)(F)F)cc(C(F)(F)F)c2)n1)NNc1ccccn1 [Verdinexor] .
Response line: -68.3

Prompt line: Give the measured % change in live cells of Cc1nc(N(C)C(=O)Cc2ccc(-c3ccccn3)cc2)sc1S(N)(=O)=O [Pritelivir] .
Response line: -38

Prompt line: Give the measured % change in live cells of COc1ccc(-c2nc(N3CCOCC3)c3sc(CN(C)c4ncc(C(=O)NO)cn4)cc3n2)cn1 [Fimepinostat] .
Response line: -76

Here's the next entry for you.
Prompt line: Give the measured % change in live cells of C=CC(=O)N1CC/C(=C\c2ccc(F)c([N+](=O)[O-])c2)C(=O)/C(=C/c2ccc(F)c([N+](=O)[O-])c2)C1 [VLX1570] .
Response line: -85.3

---

Consider the following molecules; for each one, report its % change in live cells.
- System: primary keratinocytes
- experiment notes: % change in live cells vs DMSO control; higher = less cytotoxic
- particulars: 0.082305 µM; donor: 3; time (h post treatment): 20
Give bare numbers, in %.

Example molecules with recorded % change in live cells:
Prompt line: Param readout= % change in live cells; system= primary keratinocytes; entry= COc1ccc(-c2nc(N3CCOCC3)c3sc(CN(C)c4ncc(C(=O)NO)cn4)cc3n2)cn1 [Fimepinostat] ; returns value.
Response line: -23.3

Prompt line: Param readout= % change in live cells; system= primary keratinocytes; entry= "Cc1nc(N(C)C(=O)Cc2ccc(-c3ccccn3)cc2)sc1S(N)(=O)=O" ; returns value.
Response line: -3.33

Prompt line: Param readout= % change in live cells; system= primary keratinocytes; entry= O=C(Nc1ccc([N+](=O)[O-])cc1Cl)c1cc(Cl)ccc1O [Niclosamide] ; returns value.
Response line: -8

Prompt line: Param readout= % change in live cells; system= primary keratinocytes; entry= "C=CC(=O)N1CC/C(=C\c2ccc(F)c([N+](=O)[O-])c2)C(=O)/C(=C/c2ccc(F)c([N+](=O)[O-])c2)C1" ; returns value.
Response line: -11.3

Prompt line: Param readout= % change in live cells; system= primary keratinocytes; entry= "Cc1cccc(C)c1N(CC(=O)Nc1ccc(-c2ncon2)cc1)C(=O)C1CCS(=O)(=O)CC1" ; returns value.
Response line: -5

Here's the next entry for you.
Prompt line: Param readout= % change in live cells; system= primary keratinocytes; entry= "CC1(C)CC(=O)c2c(C(F)(F)F)nn(-c3ccc(C(N)=O)c(N[C@H]4CC[C@H](O)CC4)c3)c2C1" ; returns value.
Response line: -14.3
